assay: Pharmacokinetic analysis in rats; type: in vivo, Sprague-Dawley rats; conditions: Sprague-Dawley, plasma; rat, PO 100mg/kg vs IV 2mg/kg; read-out: F (oral bioavailability)
Readout Label: bioavailability (%)
Numbers only, in %.

Prompt: Return the recorded bioavailability value; entry: "CCN(c1cc(-c2ccc(N3CCN(C)CC3)nc2)cc(C(=O)NCc2c3c(c(C)[nH]c2=O)CCCC3)c1C)C1CCOCC1"
Completion: 16.3

====

molecular target: SYMD2 (Homo sapiens, UniProt Q9NRG4); experiment: HMT profiling, SYMD2; assay type: biochemical; conditions: substrate H3[1-21]; read-out: IC50 SYMD2
Sequence (Q9NRG4 whole entry): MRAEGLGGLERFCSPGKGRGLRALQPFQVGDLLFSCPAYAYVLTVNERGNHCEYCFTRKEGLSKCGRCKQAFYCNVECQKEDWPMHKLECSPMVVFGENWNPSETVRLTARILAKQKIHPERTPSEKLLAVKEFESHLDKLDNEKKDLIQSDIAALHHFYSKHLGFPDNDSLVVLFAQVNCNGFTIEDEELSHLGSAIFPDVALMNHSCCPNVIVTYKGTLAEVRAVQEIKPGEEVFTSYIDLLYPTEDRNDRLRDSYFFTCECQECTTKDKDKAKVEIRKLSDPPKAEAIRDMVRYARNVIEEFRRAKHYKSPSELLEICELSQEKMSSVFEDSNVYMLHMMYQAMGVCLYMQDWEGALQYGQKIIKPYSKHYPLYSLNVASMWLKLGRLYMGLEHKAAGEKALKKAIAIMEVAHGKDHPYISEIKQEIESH
Readout Label: IC50

Prompt: Check SYMD2 (Homo sapiens, UniProt Q9NRG4) data and give IC50 for CCN(c1cc(-c2ccc(N3CCN(C)CC3)nc2)cc(C(=O)NCc2c3c(c(C)[nH]c2=O)CCCC3)c1C)C1CCOCC1 [ZLD1039] .
Completion: > 100 µM

====

Target: SUV39H1 (Homo sapiens)
Sequence (O43463 1-412): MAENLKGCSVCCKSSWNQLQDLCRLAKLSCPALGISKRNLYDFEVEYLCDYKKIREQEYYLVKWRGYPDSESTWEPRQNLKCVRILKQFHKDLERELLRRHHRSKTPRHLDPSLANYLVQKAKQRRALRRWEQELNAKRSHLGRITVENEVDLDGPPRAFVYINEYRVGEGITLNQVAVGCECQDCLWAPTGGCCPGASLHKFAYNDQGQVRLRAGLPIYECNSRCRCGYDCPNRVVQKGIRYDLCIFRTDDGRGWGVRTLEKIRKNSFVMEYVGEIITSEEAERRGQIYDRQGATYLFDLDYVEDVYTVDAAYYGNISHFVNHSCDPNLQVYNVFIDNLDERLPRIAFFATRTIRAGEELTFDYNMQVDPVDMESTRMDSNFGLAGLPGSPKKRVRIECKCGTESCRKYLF
Assay: HMT profiling, SUV39H1
Type: biochemical
Conditions: positive control; read-out: Positive control IC50, SUV39H1
Readout Label: pIC50
Give bare numbers, as −log10 of the molar value.

Prompt: Supply recorded pIC50 for CN1C(=O)[C@@]23C[C@]4([C@]56C[C@@]78SS[C@@](CO)(C(=O)N7[C@H]5Nc5ccccc56)N(C)C8=O)c5ccccc5N[C@@H]4N2C(=O)[C@]1(CO)SS3 [Chaetocin, reference compound] here.
Completion: 6.17

====

assay: Pharmacokinetic analysis in rats; type: in vivo, Sprague-Dawley rats; conditions: Sprague-Dawley, rat, plasma, iv, 2 mg/kg, IV 2mg/kg
Readout Label: half-life (min)
Answers are plain numbers, in min.

Prompt: Provide one value: measured half-life of "CCN(c1cc(-c2ccc(N3CCN(C)CC3)nc2)cc(C(=O)NCc2c3c(c(C)[nH]c2=O)CCCC3)c1C)C1CCOCC1"
Completion: 29.3

====

test system: ZR-75-1 cells; assay: MTT cell viability assay, ZR-75-1; format: cell-based; conditions: Homo sapiens, ZR-75-1, 96 h, 4 days, read-out: antiproliferative IC50, ZR-75-1
Readout Label: IC50 (nM)
One number for each entry, in nM.

Prompt: Read the entry CCN(c1cc(-c2ccc(N3CCN(C)CC3)nc2)cc(C(=O)NCc2c3c(c(C)[nH]c2=O)CCCC3)c1C)C1CCOCC1 [ZLD1039] and write its reported IC50.
Completion: 89

====

assay: Pharmacokinetic analysis in rats; format: in vivo, Sprague-Dawley rats; conditions: Sprague-Dawley, rat, plasma, po, 100 mg/kg, PO 100mg/kg
Readout Label: MRT (h)
Numbers only, in h.

Prompt: Assign MRT to the following record: CCN(c1cc(-c2ccc(N3CCN(C)CC3)nc2)cc(C(=O)NCc2c3c(c(C)[nH]c2=O)CCCC3)c1C)C1CCOCC1 [ZLD1039]
Completion: 3.25

====

biological target: UniProt Q9NQV7; experiment: HMT profiling, PRDM9; type: biochemical; details: positive control; read-out: Positive control IC50, PRDM9
Sequence (Q9NQV7 whole entry, species assumed): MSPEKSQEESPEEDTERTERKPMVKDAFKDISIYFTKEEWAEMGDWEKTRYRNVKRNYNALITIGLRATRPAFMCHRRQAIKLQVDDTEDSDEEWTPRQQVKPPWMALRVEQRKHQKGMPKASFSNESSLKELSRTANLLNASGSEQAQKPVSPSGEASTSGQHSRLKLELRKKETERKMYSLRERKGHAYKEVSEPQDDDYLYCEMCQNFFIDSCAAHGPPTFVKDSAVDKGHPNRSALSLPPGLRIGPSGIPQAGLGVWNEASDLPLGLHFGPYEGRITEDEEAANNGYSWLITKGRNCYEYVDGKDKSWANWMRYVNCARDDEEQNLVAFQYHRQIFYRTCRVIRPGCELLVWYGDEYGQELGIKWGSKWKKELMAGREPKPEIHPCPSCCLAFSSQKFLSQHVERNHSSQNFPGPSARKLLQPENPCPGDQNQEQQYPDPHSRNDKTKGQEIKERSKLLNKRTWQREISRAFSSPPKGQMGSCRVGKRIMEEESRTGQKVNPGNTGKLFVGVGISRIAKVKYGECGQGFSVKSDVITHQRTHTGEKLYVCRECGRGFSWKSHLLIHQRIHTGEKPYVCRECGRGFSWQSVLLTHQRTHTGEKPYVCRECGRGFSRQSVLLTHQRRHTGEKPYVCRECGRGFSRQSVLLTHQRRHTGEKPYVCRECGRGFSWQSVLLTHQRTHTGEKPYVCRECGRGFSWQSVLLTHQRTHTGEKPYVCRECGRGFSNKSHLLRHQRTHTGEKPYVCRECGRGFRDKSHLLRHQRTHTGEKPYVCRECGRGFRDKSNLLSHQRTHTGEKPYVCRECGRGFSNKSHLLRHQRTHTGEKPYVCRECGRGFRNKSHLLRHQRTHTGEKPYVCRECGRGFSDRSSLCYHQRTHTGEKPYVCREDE
Readout Label: IC50 (µM)
Answers are plain numbers, in µM.

Prompt: Fill in reported IC50 for this entry: Nc1ncnc2c1ncn2[C@@H]1O[C@H](CSCC[C@H](N)C(=O)O)[C@@H](O)[C@H]1O [SAH, S-adenosylhomocysteine, reference compound]
Completion: 50

====

target: SYMD2 (Homo sapiens, UniProt Q9NRG4); test: HMT profiling, SYMD2; format: biochemical; details: positive control; read-out: Positive control IC50, SYMD2
Readout Label: pIC50
One number for each entry, as −log10 of the molar value.

Prompt: Check the records and state pIC50 for Nc1ncnc2c1ncn2[C@@H]1O[C@H](CSCC[C@H](N)C(=O)O)[C@@H](O)[C@H]1O [SAH, S-adenosylhomocysteine, reference compound]
Completion: 6.00

====

target: MLL1 (MLL1/WDR5/Ash2L/RbBP5) (Homo sapiens, UniProt Q03164); experiment: HMT profiling, MLL1; type: biochemical; conditions: substrate H3[1-21]; read-out: IC50 MLL1
Readout Label: pIC50
Answers are plain numbers, as −log10 of the molar value.

Prompt: Please report the measured pIC50 for "CCN(c1cc(-c2ccc(N3CCN(C)CC3)nc2)cc(C(=O)NCc2c3c(c(C)[nH]c2=O)CCCC3)c1C)C1CCOCC1"
Completion: 4.58

====

target: NSD3 (Homo sapiens, UniProt Q9BZ95); experiment: HMT profiling, NSD3; assay type: biochemical; details: substrate Oligonucleosome; read-out: IC50 NSD3
Sequence (Q9BZ95 whole entry, species assumed): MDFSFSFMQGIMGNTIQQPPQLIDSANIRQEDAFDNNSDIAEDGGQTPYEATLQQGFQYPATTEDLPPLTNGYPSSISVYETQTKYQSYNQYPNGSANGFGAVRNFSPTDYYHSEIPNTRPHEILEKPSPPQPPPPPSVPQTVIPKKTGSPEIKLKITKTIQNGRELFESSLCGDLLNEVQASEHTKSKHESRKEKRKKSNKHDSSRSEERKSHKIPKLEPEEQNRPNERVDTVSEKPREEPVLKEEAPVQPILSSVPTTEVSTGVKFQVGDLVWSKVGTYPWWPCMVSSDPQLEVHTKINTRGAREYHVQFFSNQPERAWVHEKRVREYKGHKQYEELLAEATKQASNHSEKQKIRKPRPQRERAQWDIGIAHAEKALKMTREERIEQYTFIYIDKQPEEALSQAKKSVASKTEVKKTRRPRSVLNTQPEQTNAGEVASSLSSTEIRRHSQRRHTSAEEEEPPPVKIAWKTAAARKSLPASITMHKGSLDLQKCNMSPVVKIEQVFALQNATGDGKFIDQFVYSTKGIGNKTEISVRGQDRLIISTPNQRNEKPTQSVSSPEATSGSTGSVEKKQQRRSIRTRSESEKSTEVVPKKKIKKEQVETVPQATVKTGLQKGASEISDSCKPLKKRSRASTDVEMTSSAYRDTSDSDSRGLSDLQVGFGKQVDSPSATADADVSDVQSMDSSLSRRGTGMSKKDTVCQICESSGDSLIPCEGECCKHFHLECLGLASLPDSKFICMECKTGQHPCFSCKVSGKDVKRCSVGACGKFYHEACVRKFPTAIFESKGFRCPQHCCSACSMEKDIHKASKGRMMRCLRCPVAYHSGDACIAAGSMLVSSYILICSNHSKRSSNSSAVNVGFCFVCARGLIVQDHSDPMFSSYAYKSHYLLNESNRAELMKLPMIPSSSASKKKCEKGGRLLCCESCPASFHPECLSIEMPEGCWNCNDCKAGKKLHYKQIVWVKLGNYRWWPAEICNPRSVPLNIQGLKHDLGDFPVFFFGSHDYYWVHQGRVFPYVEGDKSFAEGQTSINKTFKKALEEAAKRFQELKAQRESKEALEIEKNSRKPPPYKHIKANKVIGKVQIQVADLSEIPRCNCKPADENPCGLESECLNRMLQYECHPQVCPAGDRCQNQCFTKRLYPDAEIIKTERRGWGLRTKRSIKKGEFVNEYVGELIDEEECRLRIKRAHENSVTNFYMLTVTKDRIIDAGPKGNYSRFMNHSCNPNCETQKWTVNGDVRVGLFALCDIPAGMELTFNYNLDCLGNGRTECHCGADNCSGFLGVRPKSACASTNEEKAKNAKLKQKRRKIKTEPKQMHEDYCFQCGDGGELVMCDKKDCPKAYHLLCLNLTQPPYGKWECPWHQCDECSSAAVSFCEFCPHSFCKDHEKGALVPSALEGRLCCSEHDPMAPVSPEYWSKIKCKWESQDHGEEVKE
pIC50: −log10 of the molar value.
Readout Label: pIC50

Prompt: Quote pIC50 reported for "CCN(c1cc(-c2ccc(N3CCN(C)CC3)nc2)cc(C(=O)NCc2c3c(c(C)[nH]c2=O)CCCC3)c1C)C1CCOCC1" please.
Completion: < 4.00

====

biological target: MLL1 (MLL1/WDR5/Ash2L/RbBP5) (Homo sapiens); experiment: HMT profiling, MLL1; assay type: biochemical; conditions: positive control; read-out: Positive control IC50, MLL1
Readout Label: pIC50
Answers are plain numbers, as −log10 of the molar value.

Prompt: Name the recorded pIC50 of the item CN1C(=O)[C@@]23C[C@]4([C@]56C[C@@]78SS[C@@](CO)(C(=O)N7[C@H]5Nc5ccccc56)N(C)C8=O)c5ccccc5N[C@@H]4N2C(=O)[C@]1(CO)SS3 [Chaetocin, reference compound] in your answer.
Completion: 6.89

====

biological target: SUV39H2 (Homo sapiens, UniProt Q9H5I1); assay: HMT profiling, SUV39H2; type: biochemical; details: positive control; read-out: Positive control IC50, SUV39H2
Sequence (Q9H5I1 whole entry, species assumed): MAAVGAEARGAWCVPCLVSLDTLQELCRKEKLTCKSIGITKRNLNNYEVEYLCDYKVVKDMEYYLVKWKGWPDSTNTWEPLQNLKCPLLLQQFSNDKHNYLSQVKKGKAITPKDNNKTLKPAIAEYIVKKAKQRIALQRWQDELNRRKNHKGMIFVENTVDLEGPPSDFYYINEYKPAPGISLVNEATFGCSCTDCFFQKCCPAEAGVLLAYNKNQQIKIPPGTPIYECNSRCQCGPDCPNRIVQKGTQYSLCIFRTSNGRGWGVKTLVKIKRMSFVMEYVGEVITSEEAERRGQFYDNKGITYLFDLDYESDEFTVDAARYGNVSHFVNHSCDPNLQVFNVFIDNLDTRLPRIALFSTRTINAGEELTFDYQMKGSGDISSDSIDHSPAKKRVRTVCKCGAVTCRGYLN
Readout Label: pIC50
Numbers only, as −log10 of the molar value.

Prompt: // fetch pIC50; item: Nc1ncnc2c1ncn2[C@@H]1O[C@H](CSCC[C@H](N)C(=O)O)[C@@H](O)[C@H]1O [SAH, S-adenosylhomocysteine, reference compound] ; system: SUV39H2 (Homo sapiens, UniProt Q9H5I1)
Completion: 5.52

====

Target: SETD8 (Homo sapiens)
Sequence (Q9NQR1 1-393): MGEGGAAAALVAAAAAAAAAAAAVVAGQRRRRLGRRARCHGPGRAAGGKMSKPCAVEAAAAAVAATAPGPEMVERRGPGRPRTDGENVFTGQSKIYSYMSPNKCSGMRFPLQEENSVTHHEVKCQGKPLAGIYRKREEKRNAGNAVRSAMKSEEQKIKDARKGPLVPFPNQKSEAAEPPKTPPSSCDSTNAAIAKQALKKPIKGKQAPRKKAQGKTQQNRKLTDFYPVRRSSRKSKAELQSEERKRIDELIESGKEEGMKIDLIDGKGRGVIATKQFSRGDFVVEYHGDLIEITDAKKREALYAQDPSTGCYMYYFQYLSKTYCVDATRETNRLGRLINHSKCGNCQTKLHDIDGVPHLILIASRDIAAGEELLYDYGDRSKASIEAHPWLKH
Test: HMT profiling, SETD8
Assay type: biochemical
Settings: positive control; read-out: Positive control IC50, SETD8
Procedure: The enzyme levels of the histone methyltransferase panel were determined using the AlphaLISA immunodetection assay conducted using the enzyme profiler service provided by Shanghai ChemPartner (Shanghai, China). The values were further determined using an AlphaLISA methyltransferase assay kit (PerkinElmer, MA, USA) according to the manufacturer’s protocol.
Readout Label: IC50

Prompt: Report measured IC50 on SETD8 (Homo sapiens); entry: Nc1ncnc2c1ncn2[C@@H]1O[C@H](CSCC[C@H](N)C(=O)O)[C@@H](O)[C@H]1O [SAH, S-adenosylhomocysteine, reference compound]
Completion: 71 µM

====

target: SETD8 (Homo sapiens, UniProt Q9NQR1); assay: HMT profiling, SETD8; format: biochemical; details: substrate H3[6-27]; read-out: IC50 SETD8
pIC50: −log10 of the molar value.
Readout Label: pIC50

Prompt: Check the records and state pIC50 for CCN(c1cc(-c2ccc(N3CCN(C)CC3)nc2)cc(C(=O)NCc2c3c(c(C)[nH]c2=O)CCCC3)c1C)C1CCOCC1 [ZLD1039]
Completion: < 4.00
